Here, each record is paired with measured Complete Media data.
Test system: NCI-H292 lung cancer cells
Assay: FDA drug screening, complete media vs cholesterol-free media with simvastatin (TABLE 2)
Type: cell-based, human
Conditions: NCI-H292 cells, complete media; FDA drug library screen (TABLE 2)
Counter-ions that a name gives are not always drawn.
Please state the value as a number alone, without comment.

The examples below pair each entry with its known result.
| compound | Complete Media |
| --- | --- |
| CCC(=O)O[C@H](CC(=O)O)C[N+](C)(C)C [Levocarnitine propionate (hydrochloride)] | 1.114 |
| CC(=O)O[C@]1(C(C)=O)CC[C@H]2[C@@H]3CCC4=CC(=O)CCC4=C3[C@@H](c3ccc(N(C)C)cc3)C[C@@]21C [Ulipristal acetate] | 0.695 |
| Nc1ccn([C@@H]2O[C@H](CO)[C@@H](O)[C@@H]2O)c(=O)n1 [Cytarabine (hydrochloride)] | 0.3011 |
| CCCN(CCC)C(=O)C(CCC(=O)O)NC(=O)c1ccccc1 (stereo not shown) [Proglumide] | 0.7842 |
| Cc1cc(C(=O)NNCc2ccccc2)no1 [Isocarboxazid] | 1.506 |
| C#C[C@]1(O)CC[C@H]2[C@@H]3CCc4cc(OC5CCCC5)ccc4[C@H]3CC[C@@]21C [Quinestrol] | 0.02153 |
| N#Cc1cc(-c2n[nH]c(-c3ccncc3)n2)ccn1 [Topiroxostat] | 1.543 |
| Cc1cnc(C(=O)N[C@H]2CCCCC/C=C\[C@@H]3C[C@@]3(C(=O)NS(=O)(=O)C3CC3)NC(=O)[C@@H]3C[C@@H](Oc4nc5ccccc5c5ccccc45)CN3C2=O)cn1 [Paritaprevir] | 1.102 |
| CC(COc1ccccc1)N(CCCl)Cc1ccccc1 (stereo not shown) [Phenoxybenzamine (hydrochloride)] | 0.8799 |
| O=C1CN(/N=C/C=C/c2ccc([N+](=O)[O-])o2)C(=O)N1 [Furagin] | 1.079 |

Ask: Please indicate Complete Media recorded for CC(=O)Oc1ccc(C(c2ccc(OC(C)=O)cc2)c2ccccn2)cc1 [Bisacodyl]
Reply: 0.9483

Ask: Please indicate Complete Media recorded for O=C(O)Cc1ccccc1Nc1c(Cl)cccc1Cl [Diclofenac (diethylamine)]
Reply: 0.9206

Ask: Please indicate Complete Media recorded for CCCN[C@@H]1CCc2nc(N)sc2C1 [Dexpramipexole (dihydrochloride)]
Reply: 1.11

Ask: Please indicate Complete Media recorded for O=C(Nc1ccc(Cl)cc1)Nc1ccc(Cl)c(Cl)c1 [Triclocarban]
Reply: 0.9601

Ask: Please indicate Complete Media recorded for COC(=O)c1ccc2c(c1)NC(=O)/C2=C(\Nc1ccc(N(C)C(=O)CN2CCN(C)CC2)cc1)c1ccccc1 [Nintedanib esylate]
Reply: 0.6577

Ask: Please indicate Complete Media recorded for Nc1nc(Cl)nc2c1ncn2[C@@H]1O[C@H](CO)[C@@H](O)[C@@H]1F [Clofarabine]
Reply: 0.03609
